- System: Cyperus iria
- protocol_summary: Preemergence weed control under flooded paddy conditions, CYPIR (Rice Flatsedge); as to herbicidal effect rating, CYPIR: meaning of each grade not given here
- Format: in vivo
- experimental_parameters: Rate 0.2500 kg/ha; preemergence, flooded paddy; rated three to four weeks after treatment
measure_name: herbicidal effect rating, CYPIR

chemical_structure	assayed_target	value_reported
Cn1c(C(F)(F)F)cc(=O)n(-c2ccc3snc(C(C#N)(Cc4ccccc4)Cc4ccccc4)c3c2)c1=O	Cyperus iria	6.0
Cn1c(C(F)(F)F)cc(=O)n(-c2ccc3snc(COC(=O)c4ccccc4)c3c2)c1=O	Cyperus iria	9.0
CCSCCOC(=O)c1nsc2ccc(-n3c(=O)cc(C(F)(F)F)n(C)c3=O)cc12	Cyperus iria	9.0
Cn1c(C(F)(F)F)cc(=O)n(-c2ccc3snc(COC(=O)NCc4ccccc4)c3c2)c1=O	Cyperus iria	9.0
Cn1c(C(F)(F)F)cc(=O)n(-c2ccc3snc(COC(=O)Cc4ccccc4Cl)c3c2)c1=O	Cyperus iria	7.0
Cn1c(C(F)(F)F)cc(=O)n(-c2ccc3snc(C#N)c3c2)c1=O	Cyperus iria	9.0
Cn1c(C(F)(F)F)cc(=O)n(-c2ccc3snc(COCc4ccc(Cl)c(Cl)c4)c3c2)c1=O	Cyperus iria	9.0
Cn1c(C(F)(F)F)cc(=O)n(-c2ccc3snc(C(C#N)=Cc4ccc(O)cc4)c3c2)c1=O	Cyperus iria	2.0

====

- System: Sagittaria pygmaea, L.
- protocol_summary: Preemergence weed control under flooded paddy conditions, SAGPY (Arrowhead (Pygmaea))
- Type: in vivo
- experimental_parameters: 0.2500 kg/ha; preemergence, flooded paddy; rated three to four weeks after treatment
Measured SAGPY herbicidal rating of individual entries

molecule	assayed_target	SAGPY herbicidal rating
Cc1ccc(OC(C)(C)C(=O)O)c(-c2nsc3ccc(-n4c(=O)cc(C(F)(F)F)n(C)c4=O)cc23)c1 [Example 515]	Sagittaria pygmaea, L.	0.0
Cn1c(C(F)(F)F)cc(=O)n(-c2ccc3snc(COC(=O)c4ccco4)c3c2)c1=O [Example 497]	Sagittaria pygmaea, L.	6.0
COC(=O)COc1cc(C)c(I)cc1-c1nsc2ccc(-n3c(=O)cc(C(F)(F)F)n(C)c3=O)cc12 [Example 469]	Sagittaria pygmaea, L.	3.0
Cn1c(C(F)(F)F)cc(=O)n(-c2ccc3snc(COC(=O)c4cccnc4Cl)c3c2)c1=O [Example 480]	Sagittaria pygmaea, L.	6.0

====

- System: Cyperus serotinus, Rottb.
- protocol_summary: Preemergence weed control under flooded paddy conditions, CYPSE (Flatsedge); also: meaning of each grade not given here
- Assay type: in vivo
- experimental_parameters: Rate 0.2500 kg/ha, preemergence, rated three to four weeks after treatment
measure_name: herbicidal effect rating, CYPSE

compound	value_reported
Cn1c(C(F)(F)F)cc(=O)n(-c2cc3c(C(Br)Br)nsc3cc2F)c1=O	9.0
CCCCS(=O)(=O)NC(=O)COc1ccc(C)cc1-c1nsc2ccc(-n3c(=O)cc(C(F)(F)F)n(C)c3=O)cc12	4.0
Cn1c(C(F)(F)F)cc(=O)n(-c2ccc3snc(COCc4ccc(Cl)c(Cl)c4)c3c2)c1=O	4.5
CC(C#N)c1nsc2ccc(-n3c(=O)cc(C(F)(F)F)n(C)c3=O)cc12 (stereo not shown)	9.0

====

compounds and their reported CYPIR
- Test system: Cyperus iria
- protocol_summary: Preemergence weed control under flooded paddy conditions, CYPIR (Rice Flatsedge)
- Assay type: in vivo
- experimental_parameters: 0.2500 kg/ha; preemergence weeds, flooded paddy; herbicidal effect rating 0-9, three to four weeks after treatment

compound	assayed_target	CYPIR
COC(=O)C(C)Oc1cc2c(cc1-c1nsc3ccc(-n4c(=O)cc(C(F)(F)F)n(C)c4=O)cc13)CCC2 (stereo not shown)	Cyperus iria	3.0
Cn1c(C(F)(F)F)cc(=O)n(-c2ccc3snc(C(=O)Nc4nc(C(F)(F)F)c(Cl)s4)c3c2)c1=O	Cyperus iria	5.0
CC(=O)OCCSC(SCCOC(C)=O)c1nsc2ccc(-n3c(=O)cc(C(F)(F)F)n(C)c3=O)cc12	Cyperus iria	0.0
CN(/N=C/c1nsc2ccc(-n3c(=O)cc(C(F)(F)F)n(C)c3=O)cc12)c1ccccc1	Cyperus iria	8.0

Every entry's value here was drawn from patent EP0908457B1.
